Catalogue of log10 Kd readings, one per entry.
# study_target: HLA-A*33:01
# assay_text: IEDB peptide-MHC binding, purified MHC/competitive/radioactivity; filed as Kd, often an IC50 or EC50 that approximates it; bounds were set here for any values at or beyond the usual limits of such assays
# settings: source organism: Vaccinia virus WR
Give log10 of Kd, with Kd taken in µM.

Below are worked cases with known answers.
- sequence_content: "DSFLRKIGDK"
  study_target: "HLA-A*33:01"
  value: 0.29
- sequence_content: "IINFTISMRY"
  study_target: "HLA-A*33:01"
  value: 0.72
- sequence_content: "MVDELVTRK"
  study_target: "HLA-A*33:01"
  value: 0.31
- sequence_content: "IILSKIPYLR"
  study_target: "HLA-A*33:01"
  value: -0.60
- sequence_content: "STYSDICSK"
  study_target: "HLA-A*33:01"
  value: -0.01

Q: Quote log10 Kd reported for "SQIFNIISY" please.
Ans: 0.00

Q: Quote log10 Kd reported for "SSVQLSNNKY" please.
Ans: 1.00

Q: Quote log10 Kd reported for "DTSNNIAEY" please.
Ans: 0.88

Q: Quote log10 Kd reported for "EQQQSFMPK" please.
Ans: 0.74

Q: Quote log10 Kd reported for "LLRHYYNKR" please.
Ans: -1.29

Q: Quote log10 Kd reported for "HIASKINNNR" please.
Ans: 0.77

Q: Quote log10 Kd reported for "YLSTFNMWR" please.
Ans: -1.02
